Molecular target: TRPML1 (Homo sapiens)
Sequence (Q9GZU1 whole entry L15A/L16A/L577A/L578A, form open): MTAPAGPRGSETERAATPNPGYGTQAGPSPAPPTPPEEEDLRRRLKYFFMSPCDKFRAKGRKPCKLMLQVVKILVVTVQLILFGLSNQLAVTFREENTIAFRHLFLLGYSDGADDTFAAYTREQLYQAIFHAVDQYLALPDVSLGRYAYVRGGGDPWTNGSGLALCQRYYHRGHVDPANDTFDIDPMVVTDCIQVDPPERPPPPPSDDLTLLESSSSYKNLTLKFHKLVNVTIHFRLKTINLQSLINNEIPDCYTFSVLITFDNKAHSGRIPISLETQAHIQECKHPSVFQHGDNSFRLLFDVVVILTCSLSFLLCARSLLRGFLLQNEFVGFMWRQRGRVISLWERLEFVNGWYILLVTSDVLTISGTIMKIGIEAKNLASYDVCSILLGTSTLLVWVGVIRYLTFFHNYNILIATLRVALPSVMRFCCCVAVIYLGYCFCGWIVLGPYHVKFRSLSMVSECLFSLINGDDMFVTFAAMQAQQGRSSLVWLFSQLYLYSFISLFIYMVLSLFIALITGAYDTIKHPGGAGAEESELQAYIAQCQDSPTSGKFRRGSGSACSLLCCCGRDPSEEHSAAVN
Experiment: Fluorescent TRPML1 assay (Fluo4-AM calcium fluorescence in doxycycline-induced HEK-293 Trex cells)
Assay type: cell-based
Conditions: fluorescent calcium assay
Overview of reported EC50 across a group of compounds:

C[C@H]1CN(C(=O)OC(C)(C)C)CCN1c1ncnc2c1c(N1CCCCC1)cn2-c1cccc(Cl)c1 : < 0.1 µM
C[C@@H]1CN(c2ncnc3c2c(C2CC2)cn3-c2cc(F)cc(F)c2)[C@@H](C)CN1C(=O)OC(C)(C)C : < 0.1 µM
C[C@@H]1CN(C(=O)OC(C)(C)C)CCN1c1ncnc2c1c(C1CC1)cn2-c1cccc(OC(F)F)c1 : 0.1 to 0.5 µM

Incoming: Using known records, supply EC50 for C[C@H]1CN(C(=O)OC(C)(C)C)CCN1c1ncnc2c1c(-c1ccccn1)cn2-c1cc(F)cc(F)c1
Outgoing: 0.1 to 0.5 µM

Incoming: For the compound C[C@H]1CN(C(=O)OC(C)(C)C(F)(F)F)CCN1c1ncnc2c1c(C1CC1)cn2-c1cccc(Cl)c1 , give its measured EC50 value.
Outgoing: < 0.1 µM

Incoming: Return EC50 (reported value) for this compound: COc1cccc(-n2cc(-c3cnccn3)c3c(N4CCN(C(=O)OC(C)(C)C)C[C@@H]4C)ncnc32)c1
Outgoing: 0.5 to 2 µM

Incoming: Indicate the recorded EC50 value for this compound: CC(C)(C)OC(=O)N1CCCN(c2ncnc3c2c(C2CC2)cn3-c2cc(C#N)ccn2)CCC1
Outgoing: < 0.1 µM
